Tested on: 299254-011-R-J1-PDC complex spheroid viability;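 also: spheroids exposed to drugs for one week before measurement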
procedure_details: Anticancer human tumor 299254-011-R-J1-PDC patient-derived melanoma cell line growth inhibition [POLQ]
assay_conditions: curve of first compound; second compound 1 µM
readout_label: pIC50
The value called pIC50 is obtained by taking minus log10 of the concentration in mol/L.

compound	pIC50
CC(=O)O[C@H]1C(=O)[C@@]2(C)[C@H]([C@H](OC(=O)c3ccccc3)[C@]3(O)C[C@H](OC(=O)[C@H](O)[C@@H](NC(=O)c4ccccc4)c4ccccc4)C(C)=C1C3(C)C)[C@]1(OC(C)=O)CO[C@@H]1C[C@@H]2O + Nc1ccc(C#CCN(C(=O)Cc2ncc(C(F)(F)F)cc2C(F)(F)F)c2ccc(F)cc2)nn1	7.30

Pending compound:
Provide 299254-011-R-J1-PDC complex spheroid viability pIC50 reading for CC(=O)O[C@H]1C(=O)[C@@]2(C)[C@H]([C@H](OC(=O)c3ccccc3)[C@]3(O)C[C@H](OC(=O)[C@H](O)[C@@H](NC(=O)c4ccccc4)c4ccccc4)C(C)=C1C3(C)C)[C@]1(OC(C)=O)CO[C@@H]1C[C@@H]2O + COC1C(OC(N)=O)C(O)C(Oc2ccc3c(O)c(NC(=O)c4ccc(O)c(CC=C(C)C)c4)c(=O)oc3c2C)OC1(C)C .
7.14

The measured values listed here are drawn from PubChem BioAssay AID1963849.
